Quick reference: yeast fitness of the listed items.
B1: tRNA (parent)
chain: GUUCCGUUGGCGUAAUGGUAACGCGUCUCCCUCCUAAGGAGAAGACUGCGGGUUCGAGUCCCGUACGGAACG

- Variants of: B1
- Measurement Protocol: yeast fitness relative to wild type (ratio to wild type); higher = fitter; tRNA-Arg(CCU), competitive growth, 37 C, YPD
Variants at the floor of the assay were thinned out.
Quantity: yeast fitness

1. GUUCCGUUGGCGUAAUGGUAACGCGUCUCCCUCCUAAGGAGAACACUGCGGGUUCGAGUCCCGUACGAAACG [G44C G68A] :: 0.937
2. GUUCCGUUGGCGUAAUGGUAACGCGUCUUCCUCCUAAGGAGAAGACUGCGGGUUCGAAUCCCGUACGGUACG [C29U G58A A69U] :: 0.754
3. GUUCCGUUGGCGUAAUGGUAACGCGUCUCCCUCCUAAGGAAAAGACUGCGGGUUCGAGUCCCGUACCGAACG [G41A G67C] :: 0.775
4. GUUCAGUUGGCGUAAUGGUAACGCGUCUCCCUCCUAAGGAGAAGACUGCGGGUUCGAGUCCCGUACGGCACG [C5A A69C] :: 0.919
5. GUUCCGUUGGCGUAAUGGUAGCGCGUCUCCCUCCUAAGGAGAAGACUGAGGGUUCAAGUCCCGUACGGAACG [A21G C49A G56A] :: 0.533
6. GUUCCGUUGGCGUAAUGGAAACGCGACUCCCUCCUAAGGAGAAGACUGCGGGUUCGAGUCCCGUACGGAACG [U19A U26A] :: 0.907
7. GUUCCGUUGGCGUAAUGGUAACGCGUCUCCGUCCUAAGGAGAAGACUGCGCGUUCGAGUCCCGUACGGAUCG [C31G G51C A70U] :: 0.561
8. GUUCCGUUAGCGUAAUGGUAACGCGUCUCCCUCCUAAGGAGAAGACUGAGGGUUCGAGUCCCGUACGGAACG [G9A C49A] :: 0.654
9. GUUCCGUUGGCGUAAUGGUAACGCGUCUCCCUCCUAAGGAGAAGACUGCGGGUUCGAGUCCCGUAUAGAACG [C66U G67A] :: 0.841
10. GUUCCGUUGGCGUACUGGUAACGCGUCUCCCUCCUAAGGAGAAGAAUGCGGGUUCGAGUCCCGUACGGAACG [A15C C46A] :: 0.86
11. GUUCCGUUGGCGUAAUGGUAACGCGUCUCCUUCCUAUGGAGAAGACUGCGGGUUCGAGUCCCGUAUGGAACG [C31U A37U C66U] :: 0.542
12. GUUCGGUUGGCGUAAUGGUAACGCGGCUCCCUCGUAAGGCGAAGAUUGGGGGUUCGAGUCCCGUACGGAACG [C5G U26G C34G A40C C46U C49G] :: 0.558
13. GUUCCGUUGGCGAAAUGGUAACGCGUCUCCGUCCUAAGGAGAAGACUGCGGGUUCGAGUCCCGUACGGAACG [U13A C31G] :: 1.05
14. GUUCCGUUGGCGUAAUGGUAACGCGUCUCCCUCCUAUGGCGAAGACUGCGGGUUCGAGUCCCGUACGGAACG [A37U A40C] :: 0.776
15. GUUCCGUUGGCGUAAUGGUAACGCGUCUCCCUCCUAAGGAGAAGACUACGGGUUCGAGUCCCGUACGGAUCG [G48A A70U] :: 1.04
16. GUUCCGUUGGGGUAAUGGUAACGCGUCUACCUCCUAAGGAGAAGACUGCGGGUUCGAGUCUCGUACGGAACG [C11G C29A C61U] :: 0.504
17. GUUCCGUUGGCGUAAUGGUAACGCGCCUCCCUCCUAAGGAGAAGACUGGGGGUUCGAGUCCCGUACGGAACG [U26C C49G] :: 0.842
18. GUUCCAUUCGCGUAAUGGUAACGCGUCUCCCUCCUAAGGAGUUGACUGCGGGUUCGAGUCCCGUGCGAACCG [G6A G9C A42U A43U A65G G68A A70C] :: 0.663
19. GCUCCGUUGGCGUAAUGGUAACGCGUCUCCCUCCUAAGGCGAAGACUGCGGCUUCGAGUCCCGUACAGAACG [U2C A40C G52C G67A] :: 0.56
20. GUUCCGUUGGAGUAAUGGUAACGCGUCUCCCUCCUAAGGAAAAGACUGCGGGUUCGAGUCCCGUACUCAACG [C11A G41A G67U G68C] :: 0.567
21. GUUCCGUUGGCGUAAUGGUAACGCGUCUCCCUCCUAAGGAGAAGACUCCGGGGUCGAGUCCCGUACGGAACG [G48C U53G] :: 0.635
22. GUUCCGUUGGCGUAAUGGUAACGCGUCCCCCUCCUAAGGAGAAGACUGCGGGUUCGAGUCCAGUACGGAACG [U28C C62A] :: 0.746
23. GUUCCGUUGGCGUAAUGGUAACGCGCCUCCCUCCUAAGGAGAAGACAGCGGGUUCGAGUCCCGUACGGAACG [U26C U47A] :: 0.721
